# Test system: MOLT-4
# testName: NCI tumour cell line growth inhibition, 48 h
Activity calls are given as the source filed them. Cut-off read from the data, not from the text of the source: active = GI50 up to about 1.1 µM and inactive = higher.
Choose the fitting class; nothing outside active, inactive is accepted.

compound	class
CCCOC(=O)c1cc(O)c(O)c(O)c1 [PROPYL GALLATE]	inactive
C[S+]([O-])c1cc(=O)c2ccccc2s1 (stereo not drawn)	inactive
CC(CO)CCC(O)C(C)(O)C1CCC2(O)C3=CC(=O)C4CC(O)C(O)CC4(C)C3CCC12C (stereo not drawn)	inactive

Data request: How was `O=C1c2cccc3cccc(c23)C(=O)N1CCCNCCCNCCCCNCCCNCCCN1C(=O)c2cccc3cccc(c23)C1=O` classified in this test?
Data returned: active

Data request: Returns: the outcome recorded for `C/C(CN1C(=O)c2ccccc2C1=O)=N\NS(=O)(=O)c1ccc(C)cc1` in this assay.
Data returned: inactive

Data request: # outcome recorded in this test, key = CN1CC[C@]23c4c5ccc(O)c4OC2c2[nH]ncc2C[C@H]3[C@H]1C5 (stereo partly drawn)
Data returned: inactive
